The values you see were collected from patent US6214846A.

I'd appreciate it if you could supply IC50 values for the items below.
Where a name gives a salt, the structure may show the parent alone.
Give the quantity in nM, number only.

Give recorded IC50 with human NK1 receptor (Homo sapiens, UniProt P25103) for the following compound: FC(F)(F)Oc1ccc(OC2CC2)c(CN[C@H]2CCCN[C@H]2c2ccccc2)c1 (relative stereo) [Example 1, Dihydrochloride]
Sequence (P25103 whole entry): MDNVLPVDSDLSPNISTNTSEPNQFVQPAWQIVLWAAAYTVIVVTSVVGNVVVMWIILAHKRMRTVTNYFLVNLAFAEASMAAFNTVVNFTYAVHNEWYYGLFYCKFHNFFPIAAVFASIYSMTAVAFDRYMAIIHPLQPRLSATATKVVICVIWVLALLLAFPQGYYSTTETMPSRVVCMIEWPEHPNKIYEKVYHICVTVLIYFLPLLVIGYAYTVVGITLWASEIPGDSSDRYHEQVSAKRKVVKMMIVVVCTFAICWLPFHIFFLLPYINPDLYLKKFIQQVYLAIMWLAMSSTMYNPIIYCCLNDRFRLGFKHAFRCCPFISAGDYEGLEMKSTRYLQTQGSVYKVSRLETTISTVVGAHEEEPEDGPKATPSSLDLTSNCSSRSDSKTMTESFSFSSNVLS
0.17

# query: IC50 | item Fc1ccc([C@@H]2NCCC[C@@H]2NCc2cc(OC(F)(F)F)ccc2OC2CC2)cc1 (relative stereo) [Example 3, Dihydrochloride] | system: human NK1 receptor (Homo sapiens, UniProt P25103)
0.2
